Listed molecules paired with reported %Inh
test system: PYK2; construct: gene PTK2B; conditions: concentration: 1 μM, replicates: in singlicate; n = 1;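 also: KINOMEscan kinase panel screen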
Could you give me the number in %? Just the number is fine.

Record excerpt, results attached:
molecule	units.text	value.observed
CNc1nccc(-c2ccc3c(N)n[nH]c3c2)n1	%	12
Cl.Cl.NC(CNC(=O)c1cc(Br)c(-c2ccnc3[nH]ccc23)s1)c1ccccc1 (centres unmarked)	%	32
CN(c1ccc(NC(=O)Nc2cccc(Cl)c2)cc1)c1ccnc(N)n1.Cl	%	0
CN(C)CCOc1ccc(-c2cc(-c3ccc(Cl)c(O)c3)c(-c3ccncc3)[nH]2)cc1.Cl.Cl	%	0
O=C(O)C(F)(F)F.O=c1[nH]ccc2nc(N[C@@H]3CCNC3)nc(Nc3ccc4c(c3)S(=O)(=O)CC4)c12	%	99.4

Request: Could you tell me which %Inh is on file for `Cn1cc(-c2cnc(N)c3c(-c4ccc5c(c4)CCN5C(=O)Cc4ccccc4)csc23)cn1` ?
Result: 6

Request: What do we get for `COc1cccc(NC(=O)NCCNc2ccnc(Nc3ccc(F)cc3)n2)c1` ?
Result: 21

Request: What do we get for `CN(C)CCNS(=O)(=O)c1ccc(-c2ccnc3[nH]ccc23)cc1` ?
Result: 20

Request: What do we get for `Cc1ccc(NC(=O)c2ccc(Cl)c(Cl)c2)cc1-c1ccc(C(=O)Nc2ccncc2)cc1` ?
Result: 13

Request: What do we get for `Cc1cccc(Nc2nc(NCCN)ncc2C(N)=O)c1` ?
Result: 66

Request: What do we get for `Nc1ncc(-c2cn[nH]c2)c2scc(-c3ccc4c(c3)CCN4C(=O)Cc3ccccc3)c12` ?
Result: 9

###

test system: RSK2(Kin.Dom.1-N-terminal); construct: gene RPS6KA3; conditions: concentration: 1 μM, replicates: in singlicate; n = 1
Listed compounds paired with reported %Inh

Request: Could you tell me which %Inh is on file for Cc1ccc(NC(=O)c2ccc(Cl)c(Cl)c2)cc1-c1ccc(C(=O)Nc2ccncc2)cc1 [GSK1398460] ?
Result: 0%

Request: What do we get for CCOc1nccc(-c2c(-c3ccc(F)cc3)ncn2C2CCNCC2)n1 [SB-249175] ?
Result: 52%

Request: What do we get for Cn1cc(-c2cnc(N)c3c(-c4ccc5c(c4)CCN5C(=O)Cc4ccccc4)csc23)cn1 [GSK2593074] ?
Result: 0%

Request: What do we get for Cn1cc(-c2ccc3c(c2)CCN3C(=O)Cc2cc(F)cc(F)c2F)c2c(N)ncnc21 [GSK2634140] ?
Result: 12%

Request: What do we get for `N#CC1(c2cccc(C(=O)Nc3cccc(Oc4ccc5nc(NC(=O)C6CC6)sc5n4)c3)c2)CC1` ?
Result: 15%

Request: What do we get for CN(c1ccc(NC(=O)Nc2cccc(Cl)c2)cc1)c1ccnc(N)n1.Cl [GW830707] ?
Result: 0%

Request: What do we get for COC(=O)Nc1nc2ccc(Oc3ccc(NC(=O)Nc4cc(C(F)(F)F)ccc4F)cc3)cc2[nH]1.Cl [GW654607] ?
Result: 0%

Request: What do we get for Cc1ccc(Nc2ccnc(Nc3ccc(C)c(F)c3)n2)cc1O.Cl [GW582868] ?
Result: 0%

###

test system: CDKL2; settings: concentration: 1 μM, replicates: in singlicate; n = 1
Hi, to clarify the labels: true covers %Inh from 10% upward, false covers anything below 10%.

# example entries with known answers
compound	label.class
Fc1cc(Cl)ccc1Nc1ccnc2cc(-c3ccc(CN4CCOCC4)o3)ccc12 [GW560109]	true
CCOc1nccc(-c2c(-c3ccc(F)cc3)ncn2C2CCNCC2)n1 [SB-249175]	false
Cc1cccc(Nc2nc(NCCN)ncc2C(N)=O)c1 [GSK1292139]	false
CC(C)NCC(Cc1ccccc1)NC(=O)c1cc(Br)c(-c2ccnc3[nH]ccc23)s1.Cl.Cl (centres unmarked) [GSK1383281]	true

Here's the next entry for you.
Request: # bool: %Inh of CN(c1ccc(NC(=O)Nc2cccc(Cl)c2)cc1)c1ccnc(N)n1.Cl [GW830707] >= 10%
Result: true

###

tested on: FLT1; conditions: concentration: 1 μM, replicates: in singlicate; n = 1
Hi, to clarify the labels: 1 covers %Inh from 30% upward, 0 covers anything below 30%.

# example entries with known answers
compound	target.of.assay	label.class
COc1cccc2c(-c3ccncc3)c(-c3ccc(F)cc3)nn12	FLT1	0
Cc1ccc(NC(=O)c2ccnc(N3CCCCC3)c2)cc1-c1ccc(C(=O)NCC2CC2)cc1	FLT1	1
CC(=O)Nc1cn2nc(Oc3cccc(NC(=O)c4cccc(C(F)(F)F)c4)c3)ccc2n1	FLT1	1
CC(C)(C)c1ccc(C(=O)Nc2cn3cc(-n4ccnc4)ccc3n2)cc1	FLT1	0
CC(C)c1nc(-c2cccc(NS(=O)(=O)c3c(F)cccc3F)c2)c(-c2ccnc(Nc3ccc(N4CCOCC4)nc3)n2)s1.Cl	FLT1	1

Request: # bool: %Inh of `COc1ccc(C)c(Nc2ccnc(Nc3ccc(-c4cnc[nH]4)cc3)n2)c1.Cl` >= 30%
Result: 0

Request: What do we get for `Nc1ncnc2scc(-c3ccc(NC(=O)Cc4cc(F)ccc4F)cc3)c12.O=C(O)C(F)(F)F` ?
Result: 1

Request: What do we get for `O=C(Nc1c(F)cccc1F)c1cc(C(=O)c2ccccc2F)c[nH]1` ?
Result: 0

###

test system: NEK11; details: concentration: 1 μM, replicates: in singlicate; n = 1
Listed molecules paired with reported %Inh
Could you give me the number in %? Just the number is fine.

molecule	%Inh / %
Cl.Cl.NC(CNC(=O)c1cc(Br)c(-c2ccnc3[nH]ccc23)s1)c1ccccc1 (centres unmarked)	0

Request: Could you tell me which %Inh is on file for CC(C)NCC(Cc1ccccc1)NC(=O)c1cc(Br)c(-c2ccnc3[nH]ccc23)s1.Cl.Cl (centres unmarked) ?
Result: 0

Request: What do we get for `O=C(Nc1c(F)cccc1F)c1cc(C(=O)c2ccccc2F)c[nH]1` ?
Result: 16

Request: What do we get for `Cc1cccc(Nc2nc(N[C@H]3CCCC[C@H]3N)ncc2C(N)=O)c1.Cl` ?
Result: 0

Request: What do we get for `O=C(O)C(F)(F)F.O=c1[nH]ccc2nc(N[C@@H]3CCNC3)nc(Nc3cc(Cl)cc(Cl)c3)c12` ?
Result: 0

Request: What do we get for `O=C(O)C(F)(F)F.O=c1[nH]ccc2nc(N[C@@H]3CCNC3)nc(Nc3ccc4c(c3)S(=O)(=O)CC4)c12` ?
Result: 0

Request: What do we get for `COc1cccc(-c2nc(-c3ccccc3)[nH]c2-c2ccncc2)c1` ?
Result: 26

Request: What do we get for `O=C(Nc1n[nH]c2nc(-c3ccccc3O)ccc12)C1CC1` ?
Result: 0

###

system: RPS6KA4(Kin.Dom.2-C-terminal); conditions: concentration: 1 μM, replicates: in singlicate; n = 1
Listed molecules paired with reported %Inh
Could you give me the number in %? Just the number is fine.

Record excerpt, results attached:
molecule	%Inh (%)
CN(c1ccc(NC(=O)Nc2cccc(Cl)c2)cc1)c1ccnc(N)n1.Cl	0
O=C1NC(=O)C(c2ccccc2Cl)=C1Nc1cccc(Cl)c1	0
COc1cccc(CC(=O)N2CCc3cc(-c4cn(C)c5ncnc(N)c45)ccc32)c1	0

Request: Under RPS6KA4(Kin.Dom.2-C-terminal): %Inh value of `Cc1ccc(C)c(NC(=O)Nc2ccc(C)c(-c3ccc(C(=O)Nc4ccncc4)cc3)c2)c1` ?
Result: 0

Request: What do we get for `COc1ccc(C2=C(Nc3cccc(O)c3)C(=O)NC2=O)cc1` ?
Result: 0

Request: What do we get for `Cc1ccc(O)cc1Nc1ccnc2ccc(C(C)(C)C)cc12` ?
Result: 9

###

test system: PIP5K1C; conditions: concentration: 1 μM, replicates: in singlicate; n = 1
Listed molecules paired with reported %Inh
Could you give me the number in %? Just the number is fine.

molecule	target.of.assay	%Inh (%)
Nc1cccc(-c2ccc3c(N)n[nH]c3c2)c1	PIP5K1C	28
CN(c1ccc(NC(=O)Nc2cccc(Cl)c2)cc1)c1ccnc(N)n1.Cl	PIP5K1C	0
CCNC(=O)/C=C/c1n[nH]c2cc(Sc3ccccc3C(=O)NC)ccc12	PIP5K1C	0
Cl.Cl.NCC(NC(=O)c1cc(-c2cccnc2)c(-c2ccnc3[nH]ccc23)s1)c1ccccc1 (centres unmarked)	PIP5K1C	80

Query molecule follows.
Request: Under PIP5K1C: %Inh value of `Cc1cc(-c2ccnc(Nc3cccc(C#N)c3)n2)cc(C)c1O` ?
Result: 70

###

Listed molecules paired with reported %Inh
tested on: VRK2; conditions: concentration: 1 μM, replicates: in singlicate; n = 1
Could you give me the number in %? Just the number is fine.

Record excerpt, results attached:
compound	units.text	%Inh
COc1ccc(C2=C(Nc3cccc(O)c3)C(=O)NC2=O)cc1	%	0
Nc1ncc(-c2cn[nH]c2)c2scc(-c3ccc4c(c3)CCN4C(=O)Cc3ccccc3)c12	%	0

Request: Could you tell me which %Inh is on file for `COc1cccc(C2=C(Nc3cccc(O)c3)C(=O)NC2=O)c1` ?
Result: 10

Request: What do we get for `Cn1cc(-c2ccc3c(c2)CCN3C(=O)Cc2cc(F)cc(C(F)(F)F)c2)c2c(N)ncnc21` ?
Result: 0
